All figures here come from the supplement of paper PMC12645437.

Target: T1, CRBN, Q96SW2;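 note: pooled lentiviral library of zinc finger degron-EGFP fusions in mCherry-positive Jurkat cells, FACS-sorted after compound exposure, with degron abundance counted by next-generation sequencing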
T1 chain: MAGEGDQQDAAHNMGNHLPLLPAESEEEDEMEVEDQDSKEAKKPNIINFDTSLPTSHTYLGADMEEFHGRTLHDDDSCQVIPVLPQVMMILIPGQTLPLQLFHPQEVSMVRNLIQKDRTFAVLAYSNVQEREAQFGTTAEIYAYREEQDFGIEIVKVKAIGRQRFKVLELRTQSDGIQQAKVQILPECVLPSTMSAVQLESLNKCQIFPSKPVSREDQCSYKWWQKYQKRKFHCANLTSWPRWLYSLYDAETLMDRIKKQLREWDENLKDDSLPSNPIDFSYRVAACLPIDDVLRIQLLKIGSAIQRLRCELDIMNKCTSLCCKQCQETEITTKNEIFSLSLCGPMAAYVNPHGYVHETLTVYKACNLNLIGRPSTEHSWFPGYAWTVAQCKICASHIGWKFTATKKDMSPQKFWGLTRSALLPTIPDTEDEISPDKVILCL
Assay: log2 fold change of degron read counts, EGFP-low vs EGFP+ sorted cells (limma voom), compound-induced degradation; higher = more compound-induced degradation of the degron-EGFP fusion; degrons are variants of IKZF1/3 zinc finger 2; compound dose not given here
Conditions: Jurkat; 18 h; compound: compound 33 (diphenyl IMiD analogue)
In all, about 8,300 sequences were measured (“log2 fold change of degron read counts, EGFP-low vs EGFP+ sorted cells (limma voom), compound-induced degradation”: median about -1.1, highest 2% from about 3.2 on). This excerpt belongs to a sample that is enriched for the highest values.
Would you mind telling me the reported log2 fold change of degron read counts of each entry?
Reply with just the number.

Input line: Please list log2 fold change of degron read counts recorded for the sequence FTCDVCGADFTQKGNLLRHIKL [46F_47T_49D_50V_52G_53A_54D_55F_67L_, Q9UKT9]
Output line: -2.04

Input line: Please list log2 fold change of degron read counts recorded for the sequence FDCEVCGAYFTQKGNLLRHIKL [46F_47D_49E_50V_52G_53A_54Y_55F_67L_, Q9UKT9]
Output line: -0.115

Input line: Please list log2 fold change of degron read counts recorded for the sequence FQCNVCGAIFTQKGNLLRHIKL [46F_47Q_49N_50V_52G_53A_54I_55F_67L_, Q9UKT9]
Output line: 1.44

Input line: Please list log2 fold change of degron read counts recorded for the sequence FNCEICGHGFTQKGNLLRHIKL [46F_47N_49E_50I_52G_53H_54G_55F_67L_, Q9UKT9]
Output line: -3.6

Input line: Please list log2 fold change of degron read counts recorded for the sequence FCCPICGADFTQKGNLLRHIKL [46F_47C_49P_50I_52G_53A_54D_55F_67L_, Q9UKT9]
Output line: 1.77

Input line: Please list log2 fold change of degron read counts recorded for the sequence FRCSVCGHMFTQKGNLLRHIKL [46F_47R_49S_50V_52G_53H_54M_55F_67L_, Q9UKT9]
Output line: -2.41

Input line: Please list log2 fold change of degron read counts recorded for the sequence LRCNQCGFLCTQKGNLLRHIKL [46L_47R_49N_50Q_52G_53F_54L_55C_67L_, Q9UKT9]
Output line: -1.55

Input line: Please list log2 fold change of degron read counts recorded for the sequence FFCSVCGHHFTQKGNLLRHIKL [46F_47F_49S_50V_52G_53H_54H_55F_67L_, Q9UKT9]
Output line: -2.17

Input line: Please list log2 fold change of degron read counts recorded for the sequence FDCPICGAPFTQKGNLLRHIKL [46F_47D_49P_50I_52G_53A_54P_55F_67L_, Q9UKT9]
Output line: 1.54

Input line: Please list log2 fold change of degron read counts recorded for the sequence FVCDVCGAAFTQKGNLLRHIKL [46F_47V_49D_50V_52G_53A_54A_55F_67L_, Q9UKT9]
Output line: 0.755

Input line: Please list log2 fold change of degron read counts recorded for the sequence FYCDVCGAAFTQKGNLLRHIKL [46F_47Y_49D_50V_52G_53A_54A_55F_67L_, Q9UKT9]
Output line: 1.59

Input line: Please list log2 fold change of degron read counts recorded for the sequence FYCNVCGAIFTQKGNLLRHIKL [46F_47Y_49N_50V_52G_53A_54I_55F_67L_, Q9UKT9]
Output line: -0.132

Input line: Please list log2 fold change of degron read counts recorded for the sequence FLCPVCGAAFTQKGNLLRHIKL [46F_47L_49P_50V_52G_53A_54A_55F_67L_, Q9UKT9]
Output line: 1.81

Input line: Please list log2 fold change of degron read counts recorded for the sequence FHCPVCGAIFTQKGNLLRHIKL [46F_47H_49P_50V_52G_53A_54I_55F_67L_, Q9UKT9]
Output line: 1.33

Input line: Please list log2 fold change of degron read counts recorded for the sequence FVCPVCGAIFTQKGNLLRHIKL [46F_47V_49P_50V_52G_53A_54I_55F_67L_, Q9UKT9]
Output line: 1.42

Input line: Please list log2 fold change of degron read counts recorded for the sequence LHCNQCGFWCTQKGNLLRHIKL [46L_47H_49N_50Q_52G_53F_54W_55C_67L_, Q9UKT9]
Output line: -1.08

Input line: Please list log2 fold change of degron read counts recorded for the sequence FCCPICGAPFTQKGNLLRHIKL [46F_47C_49P_50I_52G_53A_54P_55F_67L_, Q9UKT9]
Output line: 2.16

Input line: Please list log2 fold change of degron read counts recorded for the sequence FGCPVCGAIFTQKGNLLRHIKL [46F_47G_49P_50V_52G_53A_54I_55F_67L_, Q9UKT9]
Output line: 2.5

Input line: Please list log2 fold change of degron read counts recorded for the sequence FRCPVCGAAFTQKGNLLRHIKL [46F_47R_49P_50V_52G_53A_54A_55F_67L_, Q9UKT9]
Output line: 2.44

Input line: Please list log2 fold change of degron read counts recorded for the sequence FWCNQCGRTFTQKGNLLRHIKL [46F_47W_49N_50Q_52G_53R_54T_55F_67L_, Q9UKT9]
Output line: -1.37

Input line: Please list log2 fold change of degron read counts recorded for the sequence FRCPVCGAIFTQKGNLLRHIKL [46F_47R_49P_50V_52G_53A_54I_55F_67L_, Q9UKT9]
Output line: 0.606

Input line: Please list log2 fold change of degron read counts recorded for the sequence FQCDICGAIFTQKGNLLRHIKL [46F_47Q_49D_50I_52G_53A_54I_55F_67L_, Q9UKT9]
Output line: 1.7

Input line: Please list log2 fold change of degron read counts recorded for the sequence FCCNICGAPFTQKGNLLRHIKL [46F_47C_49N_50I_52G_53A_54P_55F_67L_, Q9UKT9]
Output line: 1.32

Input line: Please list log2 fold change of degron read counts recorded for the sequence FCCDICGAIFTQKGNLLRHIKL [46F_47C_49D_50I_52G_53A_54I_55F_67L_, Q9UKT9]
Output line: 1.18

Input line: Please list log2 fold change of degron read counts recorded for the sequence FKCDICGAIFTQKGNLLRHIKL [46F_47K_49D_50I_52G_53A_54I_55F_67L_, Q9UKT9]
Output line: -2.93

Input line: Please list log2 fold change of degron read counts recorded for the sequence FTCNQCGALFTQKGNLLRHIKL [46F_47T_49N_50Q_52G_53A_54L_55F_67L_, Q9UKT9]
Output line: -1.35

Input line: Please list log2 fold change of degron read counts recorded for the sequence FYCPICGADFTQKGNLLRHIKL [46F_47Y_49P_50I_52G_53A_54D_55F_67L_, Q9UKT9]
Output line: 1.25

Input line: Please list log2 fold change of degron read counts recorded for the sequence FQCPVCGAIFTQKGNLLRHIKL [46F_47Q_49P_50V_52G_53A_54I_55F_67L_, Q9UKT9]
Output line: 2.64

Input line: Please list log2 fold change of degron read counts recorded for the sequence FYCPICGAKFTQKGNLLRHIKL [46F_47Y_49P_50I_52G_53A_54K_55F_67L_, Q9UKT9]
Output line: 1.08
